protocol_notes: compound enhancement of TRAIL-induced cell killing – NB7 cells plus caspase-8, luminescence, panel, dose response (AID 652002)
assay_setup: NB7 neuroblastoma +caspase-8, no TRAIL, compound-alone cytotoxicity counter-screen, luminescence viability; NB7+Caspase-8; mean of runs
Active and inactive are the calls of the source. The rule behind the calls is not given here.
readout_name: EC50

Some solved cases for reference:
[
  {
    "smiles_notation": "CCN(CC)c1ccc(/C=N/NC(=O)c2ccco2)cc1",
    "EC50": "> 12.5 µM (inactive)"
  },
  {
    "smiles_notation": "CN1C[C@@H]2[C@@H]3C(=O)N(Cc4ccccc4)C(=O)[C@@H]3[C@](Cc3ccccc3)(C1=O)N2C(=O)c1ccc(C(C)(C)C)cc1",
    "EC50": "> 12.5 µM (inactive)"
  },
  {
    "smiles_notation": "C=Cc1ccc(Cn2c(C)c(C(=O)NCc3cccc(C(F)(F)F)c3)sc2=O)cc1",
    "EC50": "> 12.5 µM (inactive)"
  },
  {
    "smiles_notation": "O=C(N/N=C/c1ccc2cccnc2c1)c1ccco1",
    "EC50": "inactive"
  },
  {
    "smiles_notation": "c1ccc(Nc2nnc(-c3cccnc3)s2)cc1",
    "EC50": "> 12.5 µM (inactive)"
  }
]

Please state, for each entry, its recorded EC50.
1. O=C(Nc1ccc2c(c1)OCCO2)NC1CCCCC1
2. COc1cccc(NC(=O)c2ccc3c(c2)OCO3)c1
3. CN(C)CCCN(C(=O)c1ccc(C(=O)c2ccccc2)cc1)c1nc2ccc(F)cc2s1

1: > 12.5 µM (inactive); 2: inactive; 3: > 12.5 µM (inactive)

###

protocol_notes: compound enhancement of TRAIL-induced cell killing – NB7 cells plus caspase-8, luminescence, panel, dose response (AID 652002)
assay_setup: NB7 neuroblastoma +caspase-8, no TRAIL, compound-alone cytotoxicity counter-screen, luminescence viability; NB7+Caspase-8; run 2; single replicate panel EC50
Record form. Attribute: EC50. Fill in for each entry.

Some solved cases for reference:
[
  {
    "compound": "C/C(=N\\NC(=O)c1csc(C)c1C)c1ccco1",
    "EC50": "> 12.5 µM"
  },
  {
    "compound": "CCOc1ccc(-c2nnc(-c3ccccc3)o2)cc1",
    "EC50": "> 12.5 µM"
  },
  {
    "compound": "Cc1ccc2c(c1)C(=NC1CCCCC1)c1cc3ccccc3nc1-2",
    "EC50": "> 12.5 µM"
  },
  {
    "compound": "COc1cc(NC(=O)c2cncc(-c3ccc(C#N)cc3)c2)cc(C(=O)Nc2cccc(C(F)(F)F)c2)c1",
    "EC50": "> 12.5 µM"
  },
  {
    "compound": "CCOc1ccc(NC(=O)c2ccco2)cc1",
    "EC50": "10.7 µM"
  }
]

Please state, for each entry, its recorded EC50.
1. Nc1ccccc1C(=O)NN=Cc1cccc([N+](=O)[O-])c1
2. CCC(C)c1ccc(O)c(NC(=S)NC(=O)c2cccs2)c1 (configuration not stated)
3. C#CC(=O)CC1(CN(Cc2ccccc2)C(=O)OC(C)(C)C)CCCCC1

1: 9.8 µM; 2: 8.18 µM; 3: 1.52 µM

Please state, for each entry, its recorded EC50.
1. O=C(Nc1ccc(C(=O)O)cc1)/C(=C\C=C\c1ccccc1)NC(=O)c1ccccc1Cl
2. C(=C\c1ccco1)/c1nc2ccccc2[nH]1

1: > 12.5 µM; 2: > 12.5 µM

Please state, for each entry, its recorded EC50.
1. Clc1nc(Cl)c2ncn(-c3ccccc3)c2n1
2. COc1ccc(-c2nnc(SCC(=O)c3[nH]c(C)c(C(C)=O)c3C)o2)cc1

1. > 12.5 µM
2. > 12.5 µM

###

subject_of_test: Tumor necrosis factor receptor superfamily member 10B (Homo sapiens) (UniProt O14763)
Sequence (O14763 whole entry, looked up): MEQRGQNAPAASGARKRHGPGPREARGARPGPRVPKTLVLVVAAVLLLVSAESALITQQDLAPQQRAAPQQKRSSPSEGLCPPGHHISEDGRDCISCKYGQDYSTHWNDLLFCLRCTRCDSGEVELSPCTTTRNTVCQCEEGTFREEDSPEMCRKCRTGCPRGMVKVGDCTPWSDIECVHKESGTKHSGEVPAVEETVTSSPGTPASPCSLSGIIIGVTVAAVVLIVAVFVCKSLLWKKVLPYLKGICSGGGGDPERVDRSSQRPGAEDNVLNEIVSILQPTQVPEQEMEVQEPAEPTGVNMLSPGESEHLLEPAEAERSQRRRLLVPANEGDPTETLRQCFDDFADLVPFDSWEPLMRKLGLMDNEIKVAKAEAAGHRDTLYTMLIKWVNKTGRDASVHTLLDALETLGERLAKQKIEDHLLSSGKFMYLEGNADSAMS
protocol_notes: compound enhancement of TRAIL-induced cell killing – NB7 cells plus caspase-8, luminescence, panel, dose response (AID 652002)
assay_setup: NB7 neuroblastoma +caspase-8, TRAIL sensitization, luminescence viability; NB7+Caspase-8; with TRAIL, mean of runs
The source made the active and inactive calls. No rule for the calls is given here.
readout_name: EC50

Some solved cases for reference:
[
  {
    "compound": "COc1ccccc1C=NNC(=O)NN=Cc1ccccc1OC",
    "subject_of_test": "Tumor necrosis factor receptor superfamily member 10B (Homo sapiens) (UniProt O14763)",
    "EC50": "inactive"
  },
  {
    "compound": "O=C(NC(=S)Nc1nc2c(s1)CCCC2)c1ccccc1",
    "subject_of_test": "Tumor necrosis factor receptor superfamily member 10B (Homo sapiens) (UniProt O14763)",
    "EC50": "inactive"
  },
  {
    "compound": "Cc1cc(NC(=O)C2CCCC2)nc2c1c(=O)oc1ccccc12",
    "subject_of_test": "Tumor necrosis factor receptor superfamily member 10B (Homo sapiens) (UniProt O14763)",
    "EC50": "> 12.5 µM (inactive)"
  },
  {
    "compound": "Cc1nn(-c2ccccc2)c2nc(N)c(C#N)c(-c3ccc(F)cc3)c12",
    "subject_of_test": "Tumor necrosis factor receptor superfamily member 10B (Homo sapiens) (UniProt O14763)",
    "EC50": "> 12.5 µM (inactive)"
  }
]

Please state, for each entry, its recorded EC50.
1. COc1ccc(-c2nnc(SCC(=O)c3[nH]c(C)c(C(C)=O)c3C)o2)cc1
2. O=C(Nc1cnc2ccccn2c1=O)c1ccc(Cl)cc1Cl
3. CCSc1ccc(-c2ccc(C)cc2)nn1
4. CC1(Cc2ccc(OC(F)(F)F)cc2)C(=O)Nc2ccc(S(=O)(=O)NC3CCCCC3)cc21 (stereo unspecified)
5. O=C(Nc1ccc(C(=O)O)cc1)/C(=C\C=C\c1ccccc1)NC(=O)c1ccccc1Cl
6. CCOC(=O)C(=C1Nc2ccccc2N1)n1c(-c2cccnc2)nc2ccccc21
7. CCOC(=O)c1sc(NC(=O)Nc2ccc(F)cc2)nc1C
8. COC(=O)c1ccc(/C=C(\C#N)c2ccccn2)cc1

1. > 12.5 µM (inactive)
2. > 12.5 µM (inactive)
3. inactive
4. > 12.5 µM (inactive)
5. inactive
6. inactive
7. > 12.5 µM (inactive)
8. > 12.5 µM (inactive)

###

protocol_notes: compound enhancement of TRAIL-induced cell killing – NB7 cells plus caspase-8, luminescence, panel, dose response (AID 652002)
assay_setup: NB7 neuroblastoma +caspase-8, no TRAIL, compound-alone cytotoxicity counter-screen, luminescence viability; NB7+Caspase-8; run 1; single replicate panel EC50
Record form. Attribute: EC50. Fill in for each entry.

[
  {
    "smiles_notation": "Nc1ccccc1C(=O)NN=Cc1cccc([N+](=O)[O-])c1",
    "EC50": "> 12.5 µM"
  },
  {
    "smiles_notation": "CC(C)CCn1c(=O)c(C(=O)Nc2ccccc2S(N)(=O)=O)c(O)c2ccccc21",
    "EC50": "> 12.5 µM"
  }
]

Please state, for each entry, its recorded EC50.
1. Cc1ccc(-n2nnc(-c3cccnc3Cl)n2)cc1
2. CC(C)(C)OC(=O)[C@H](Cc1ccccc1)NC(=O)c1[nH]cnc1C(=O)Nc1ccccc1F
3. CN1C[C@@H]2[C@@H]3C(=O)N(Cc4ccccc4)C(=O)[C@@H]3[C@](Cc3ccccc3)(C1=O)N2C(=O)c1ccc(C(C)(C)C)cc1

> 12.5 µM
> 12.5 µM
> 12.5 µM

Please state, for each entry, its recorded EC50.
1. COc1cccc(NC(=O)Nc2nccc(C)n2)c1
2. COC(=O)c1ccc(/C=C(\C#N)c2ccccn2)cc1
3. CCOc1ccc(/C=C/C(=O)Nc2cccc(C(C)=O)c2)cc1

1: > 12.5 µM; 2: > 12.5 µM; 3: > 12.5 µM

###

subject_of_test: Tumor necrosis factor receptor superfamily member 10B (Homo sapiens) (UniProt O14763)
protocol_notes: compound enhancement of TRAIL-induced cell killing – NB7 cells plus caspase-8, luminescence, panel, dose response (AID 652002)
assay_setup: NB7 neuroblastoma +caspase-8, TRAIL sensitization, luminescence viability; NB7+Caspase-8; with TRAIL, mean of runs
Calls of active or inactive are those of the source. How the calls were made is not given here.
readout_name: EC50

Some solved cases for reference:
[
  {
    "smiles_notation": "Cc1ccc(-n2nnc(-c3cccnc3Cl)n2)cc1",
    "assay_value": "> 12.5 µM (inactive)"
  },
  {
    "smiles_notation": "Cc1ccc(S(=O)(=O)Nc2ccccc2C(=O)Nc2nc(-c3ccc(F)cc3)cs2)cc1",
    "assay_value": "inactive"
  },
  {
    "smiles_notation": "Cc1ccn2cc(C(=O)Nc3ccc4c(c3)OCCO4)nc2c1",
    "assay_value": "inactive"
  },
  {
    "smiles_notation": "COc1ccc(-c2nc(-c3ccc(NC(=O)c4ccncc4)cc3)no2)cc1OC",
    "assay_value": "> 12.5 µM (inactive)"
  },
  {
    "smiles_notation": "Nc1ccccc1C(=O)NN=Cc1cccc([N+](=O)[O-])c1",
    "assay_value": "inactive"
  }
]

Please state, for each entry, its recorded EC50.
1. CC1(C)N=C(N)N=C(N)N1c1ccc(Oc2ccc(Cl)cc2)c(Cl)c1
2. COCCCn1c(C(=O)Nc2ccc3c(c2)OCO3)cc2c(=O)n3cccc(C)c3nc21
3. O=C(N/N=C/c1cccnc1)c1ccc2c(c1)OCO2
4. O=Nc1ccc(NO)c2ccccc12
5. O=C(Nc1ccc2c(c1)OCCO2)NC1CCCCC1
6. O=C1c2ccc3c4c(ccc(c24)C(=O)N1c1cccc(O)c1)C(=O)N(c1cccc(O)c1)C3=O

1: inactive; 2: > 12.5 µM (inactive); 3: > 12.5 µM (inactive); 4: inactive; 5: inactive; 6: inactive
